Value source: patent US20220033483A1

Measured kon values are reported for all entries that follow.
biological target: T1, cTnI quality control product recombinant protein (human, UniProt P19429 1-210, limits assumed); assay: AMC biosensor, antibody on sensor
T1 construct: the assay paragraphs only say cTnI; also called cardiac troponin I; cTnI antigen
T1 sequence (P19429 whole entry): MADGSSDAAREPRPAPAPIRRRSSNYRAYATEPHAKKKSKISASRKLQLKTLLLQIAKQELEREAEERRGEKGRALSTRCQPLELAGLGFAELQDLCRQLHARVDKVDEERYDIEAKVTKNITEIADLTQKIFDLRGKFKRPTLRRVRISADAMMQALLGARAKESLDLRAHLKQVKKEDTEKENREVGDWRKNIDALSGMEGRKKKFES
Please give a number only; it is taken to be in M⁻¹ s⁻¹.

binder="Mutation 1-53 (antibody, V domains shown) VH: QVQLQQSGTELAKPGASVKFSCKASGYTFSSYWMYWIKQRPGQGLEWIGYINPSTGHTDYNQRFKDKATLTADKSSSTAYMQLNSLTSEDSAVYYCARKYYGPFGMDYWGQGTSVTVSS VL: EIFLTQSPAIMSASPGEKVTMTCSASTTVSYVHWYQQKSGTSPKRWIYDTSKLASGIPVRFSGSGSGTSYSLTISSMEAEDAATYYCQQWSTNPYTFGGGTKLEIKR" reported_property=kon reported=50000

// switching to the query binder
# binder Mutation 1-14 (antibody, V domains shown) VH: QVQLQQSGTELAKPGASVKFSCKASGYTFTSYWMYWIKQRPGQGLEWIGYLNPSTGHTDYNQKFKDKATLTADKSSSTAYMQLNSLTSEDSAVYYCARRYWGPFGMDYWGQGTSVTVSS VL: EIFLTQSPAIMSASPGEKVTMTCSASSTVSYVHWYQQKSGTSPKRWLYDTSKLASGIPVRFSGSGSGTSYSLTISSMEAEDAATYYCQQWSTQPYTFGGGTKLEIKR ; its kon = 27700
